# target or test system: T1, bacterially produced human IL-6 (Homo sapiens, UniProt P05231)
# T1 construct: His
# T1 sequence (P05231 30-212): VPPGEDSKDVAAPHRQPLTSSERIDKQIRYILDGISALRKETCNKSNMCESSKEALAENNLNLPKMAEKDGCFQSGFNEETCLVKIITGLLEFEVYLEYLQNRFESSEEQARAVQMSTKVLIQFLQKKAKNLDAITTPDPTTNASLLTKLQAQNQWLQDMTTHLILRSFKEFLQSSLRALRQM
# test: Surface plasmon resonance (Biacore), bacterially produced human IL-6 coated on CM5 chip
# Assay type: binding
# condition label: bact; periplasmic fractions, 28A6 chain-shuffled
measured attribute: kd (s⁻¹)
Provide the reading as a plain figure in s⁻¹.

According to the records, this molecule 55C11f: 28A6 chain-shuffled Fab, periplasmic fraction (antibody, V domains shown) VH: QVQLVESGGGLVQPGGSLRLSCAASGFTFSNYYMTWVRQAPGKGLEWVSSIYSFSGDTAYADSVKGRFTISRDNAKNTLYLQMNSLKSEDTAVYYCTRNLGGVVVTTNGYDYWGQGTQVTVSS VL: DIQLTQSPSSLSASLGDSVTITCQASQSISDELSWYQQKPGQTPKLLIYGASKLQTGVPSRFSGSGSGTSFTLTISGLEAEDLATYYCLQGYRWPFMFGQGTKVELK displays kd of 6.94e-05
